Entry source: ChEMBL document CHEMBL1144571

assay: Ratio of drug levels in brain to plasma in Wistar rat at 4 ug/kg, iv; assay type: ADME, organism-based; details: brain and plasma, 0.004 mg/kg
valueType: Kp

[ask] Query: Kp; subject: "[3H]C([3H])([3H])O/N=C1/C=C(C#Cc2cccc(C)n2)CCC1"
[reply] 20

* * *

molecular target: Metabotropic glutamate receptor 5 (Rattus norvegicus)
valueType: Kd

[ask] Query: Kd; subject: "[3H]C([3H])([3H])O/N=C1/C=C(C#Cc2cccc(C)n2)CCC1"
[reply] 2.3 nM

* * *

assay: Metabolic stability assessed as intrinsic clearance in Sprague-Dawley rat liver microsomes; format: ADME, Microsome
valueType: microsomal CLint (µL/min/mg)
Entry rule: numbers only, all in µL/min/mg.

[ask] Query: microsomal CLint; subject: "[3H]C([3H])([3H])O/N=C1/C=C(C#Cc2cccc(C)n2)CCC1"
[reply] 150

* * *

target: Metabotropic glutamate receptor 5 (Homo sapiens); assay: Displacement of [3H]ABP688 from human mGluR5 receptor expressed in L (tk-) cells; type: cell-based
valueType: pKi
Notebook: values listed as pKi are -log10 of the concentration (mol/L).

[ask] Query: pKi; subject: "CO/N=C1/C=C(C#Cc2cccc(C)n2)CCC1"
[reply] 8.77

* * *

target: Metabotropic glutamate receptor 5 (Homo sapiens, UniProt P41594); test: Activity at human recombinant mGluR5 expressed in L(tk-) cells assessed as inhibition of glutamate-induced calcium release; type: functional, cell-based
Sequence (P41594 whole entry): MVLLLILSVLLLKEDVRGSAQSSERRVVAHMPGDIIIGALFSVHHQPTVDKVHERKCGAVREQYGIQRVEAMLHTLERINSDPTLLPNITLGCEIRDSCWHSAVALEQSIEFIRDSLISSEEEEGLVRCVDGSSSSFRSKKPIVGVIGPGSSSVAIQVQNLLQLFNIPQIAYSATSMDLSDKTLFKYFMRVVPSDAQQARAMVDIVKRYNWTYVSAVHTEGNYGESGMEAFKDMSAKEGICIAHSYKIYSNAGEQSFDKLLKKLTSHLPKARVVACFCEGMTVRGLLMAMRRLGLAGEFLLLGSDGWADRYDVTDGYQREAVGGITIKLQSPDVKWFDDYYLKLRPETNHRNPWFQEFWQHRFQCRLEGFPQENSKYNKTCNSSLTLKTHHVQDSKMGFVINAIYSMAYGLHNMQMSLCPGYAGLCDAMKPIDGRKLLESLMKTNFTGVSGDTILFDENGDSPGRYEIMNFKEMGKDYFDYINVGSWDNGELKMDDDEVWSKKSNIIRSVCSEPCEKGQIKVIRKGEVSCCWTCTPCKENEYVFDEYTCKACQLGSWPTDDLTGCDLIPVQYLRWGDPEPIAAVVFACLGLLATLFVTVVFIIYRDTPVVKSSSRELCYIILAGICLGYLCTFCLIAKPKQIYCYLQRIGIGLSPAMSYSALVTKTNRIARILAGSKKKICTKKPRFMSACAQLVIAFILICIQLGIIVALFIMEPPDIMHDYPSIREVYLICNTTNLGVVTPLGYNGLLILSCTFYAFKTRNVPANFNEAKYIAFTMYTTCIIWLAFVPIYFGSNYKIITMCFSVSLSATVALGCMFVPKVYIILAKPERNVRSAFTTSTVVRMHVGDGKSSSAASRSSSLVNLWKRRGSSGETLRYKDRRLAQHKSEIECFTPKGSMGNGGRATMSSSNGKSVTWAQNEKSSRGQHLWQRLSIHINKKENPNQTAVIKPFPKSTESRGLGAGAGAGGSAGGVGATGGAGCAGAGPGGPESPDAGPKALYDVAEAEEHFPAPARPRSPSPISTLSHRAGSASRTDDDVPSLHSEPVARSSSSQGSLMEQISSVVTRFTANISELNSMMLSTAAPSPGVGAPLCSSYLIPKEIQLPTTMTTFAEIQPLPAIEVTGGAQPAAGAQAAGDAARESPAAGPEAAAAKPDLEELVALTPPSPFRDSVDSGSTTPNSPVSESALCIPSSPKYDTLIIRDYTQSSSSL
valueType: IC50
Kindly format the answer as number then unit.

[ask] Query: IC50; subject: "CO/N=C1/C=C(C#Cc2cccc(C)n2)CCC1"
[reply] 2.3 nM

* * *

biological target: Metabotropic glutamate receptor 5 (Homo sapiens, UniProt P41594); assay: Activity at human recombinant mGluR5 expressed in L(tk-) cells assessed as inhibition of quisqualate-induced phosphoinositol accumulation; format: functional, cell-based
valueType: pIC50
Notebook: values listed as pIC50 are -log10 of the concentration (mol/L).

[ask] Query: pIC50; subject: "CO/N=C1/C=C(C#Cc2cccc(C)n2)CCC1"
[reply] 8.62

* * *

biological target: Metabotropic glutamate receptor 5 (Rattus norvegicus, UniProt P31424); assay: Displacement of [3H]ABP688 from mGluR5 in rat brain membrane; assay type: cell membranes
Sequence (P31424 whole entry): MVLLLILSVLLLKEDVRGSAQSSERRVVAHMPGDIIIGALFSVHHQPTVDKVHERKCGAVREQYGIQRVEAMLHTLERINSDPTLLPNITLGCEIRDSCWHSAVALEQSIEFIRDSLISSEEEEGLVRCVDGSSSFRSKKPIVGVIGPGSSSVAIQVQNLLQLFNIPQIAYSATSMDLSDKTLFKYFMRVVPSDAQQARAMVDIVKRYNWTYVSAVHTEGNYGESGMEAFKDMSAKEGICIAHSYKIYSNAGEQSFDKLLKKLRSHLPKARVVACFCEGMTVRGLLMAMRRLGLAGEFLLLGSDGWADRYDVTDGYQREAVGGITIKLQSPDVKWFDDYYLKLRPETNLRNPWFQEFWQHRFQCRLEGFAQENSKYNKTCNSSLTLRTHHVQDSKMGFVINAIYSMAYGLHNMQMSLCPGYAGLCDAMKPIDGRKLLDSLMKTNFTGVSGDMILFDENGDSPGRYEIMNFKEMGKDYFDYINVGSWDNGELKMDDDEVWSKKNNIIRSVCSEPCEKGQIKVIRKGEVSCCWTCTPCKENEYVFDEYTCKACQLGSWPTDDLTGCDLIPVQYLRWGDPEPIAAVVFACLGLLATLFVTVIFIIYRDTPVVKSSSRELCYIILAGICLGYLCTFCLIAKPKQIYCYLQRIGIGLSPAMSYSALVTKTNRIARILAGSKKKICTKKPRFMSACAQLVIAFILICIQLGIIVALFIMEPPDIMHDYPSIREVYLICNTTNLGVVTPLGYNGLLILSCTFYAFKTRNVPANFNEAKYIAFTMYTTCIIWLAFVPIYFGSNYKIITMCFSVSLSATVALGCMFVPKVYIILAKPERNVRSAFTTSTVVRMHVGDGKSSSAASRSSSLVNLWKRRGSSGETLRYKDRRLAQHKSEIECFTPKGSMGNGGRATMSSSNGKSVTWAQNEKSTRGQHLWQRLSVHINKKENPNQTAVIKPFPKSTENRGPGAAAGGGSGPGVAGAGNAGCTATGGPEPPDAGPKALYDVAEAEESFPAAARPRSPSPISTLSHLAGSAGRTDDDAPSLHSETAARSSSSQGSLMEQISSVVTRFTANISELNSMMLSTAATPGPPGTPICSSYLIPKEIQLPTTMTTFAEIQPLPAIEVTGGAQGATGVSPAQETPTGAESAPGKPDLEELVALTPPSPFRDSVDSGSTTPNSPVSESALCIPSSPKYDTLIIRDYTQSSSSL
valueType: Ki (nM)
Entry rule: numbers only, all in nM.

[ask] Query: Ki; subject: "COc1cccc(C#Cc2cccc(C)n2)c1"
[reply] 11

* * *

test: Protein binding in rat plasma as percentage unbound; assay type: ADME, cell-free
valueType: fraction unbound
Keep it simple and answer with nothing but the number.

[ask] Query: fraction unbound; subject: "[3H]C([3H])([3H])O/N=C1/C=C(C#Cc2cccc(C)n2)CCC1"
[reply] 0.068

* * *

molecular target: Metabotropic glutamate receptor 5 (Homo sapiens, UniProt P41594); assay: Displacement of [3H]M-MPEP from human mGluR5 receptor expressed in L (tk-) cells; assay type: cell-based
valueType: pIC50
Notebook: values listed as pIC50 are -log10 of the concentration (mol/L).

[ask] Value wanted: pIC50 (Metabotropic glutamate receptor 5 (Homo sapiens, UniProt P41594)) of entry "CO/N=C1/C=C(C#Cc2cccc(C)n2)CCC1"
[reply] 8.15
